Collected nuclei count values appear next to each entry.
test.description: endothelial E-selectin expression blockers – imaging, HUVEC, immunofluorescence, MLSMR starter and 10KST1 sets, primary screen (AID 487);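 note: 100% = median nuclei count of all wells on the same plate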
condition.notes: HUVEC TNFalpha-induced E-selectin immunofluorescence imaging, at 2 µM; measured here: cell number, toxicity
recorded.endpoint: nuclei count (%)

> print(dat)
                                    molecule  recorded.endpoint  output.unit  measurement
 1             COC(=O)Nc1ccccc1C(=O)N1CCCCC1       nuclei count            %          112
 2   Cc1ccc(NC(=O)CSc2nnc(-c3ccncc3)n2C)cc1C       nuclei count            %          130
 3            O=C(O)c1cccn2c(=O)c3ccccc3nc12       nuclei count            %          126
 4  CC(NC(=O)COc1ccccc1)C(=O)NC1=NCCS1 (stereo not drawn)       nuclei count            %          128
 5           CN(C)c1ccc(/C(=N\O)c2ccccc2)cc1       nuclei count            %          103
 6         CCOc1ccccc1C(=O)NCc1ccc2c(c1)OCO2       nuclei count            %         94.7
 7  Cc1ccc(C(c2nnnn2CCC(C)C)N2CCN(C)CC2)cc1 (stereo not drawn)       nuclei count            %          108
 8               Cn1cc(Cl)c(C(=O)NC2CCCC2)n1       nuclei count            %          104
 9  Cc1ccc(C)c2[nH]c(=O)c(CCNC(=O)CC(C)(C)C)cc12       nuclei count            %         90.8
10  CCOc1ccc(NC(=O)CSc2nnc(COc3c(C)cccc3C)o2)cc1       nuclei count            %          115
11  COc1ccc(NC(=O)C2CCCN(S(=O)(=O)c3cccc4cccnc34)C2)cc1OC (stereo not drawn)       nuclei count            %          109
12                 CC1(C)Cc2ccccc2C(N)=C1C#N       nuclei count            %          102
13             COC(=O)Cc1c(C)nc2nc[nH]n2c1=O       nuclei count            %          104
14  O=C1CC(N2CCOCC2)C(=O)N1c1ccccc1Cl (stereo not drawn)       nuclei count            %          128
15  O=C(NC1CCCc2ccccc21)C1CCN(c2nnc(-n3cccc3)s2)CC1 (stereo not drawn)       nuclei count            %          114
16  CC1CCc2nn(CC(=O)N3CCN(C(=O)c4ccco4)CC3)cc2C1 (stereo not drawn)       nuclei count            %          107
17    Cc1cccc(-n2ncc3c(NCCCn4ccnc4)ncnc32)c1       nuclei count            %          119
18       O=C(NC1=NCCS1)NC12CC3CC(CC(C3)C1)C2       nuclei count            %          101
19     CCN(C1CCCCC1)S(=O)(=O)c1ccc(OC)c(C)c1       nuclei count            %          128
20               O=C(CCn1cccc1)N1CCc2ccccc21       nuclei count            %          106
21                   CC(=O)SCCC(=O)Nc1ccccc1       nuclei count            %          108
22  O=S(=O)(c1cccc2nsnc12)N1CCN(c2ncccn2)CC1       nuclei count            %          120
23  CC1(C)CC(=O)N(CC(=O)NCc2ccccc2)c2ccccc2S1(=O)=O       nuclei count            %          120
24  COc1cccc2sc(NC(=O)c3ccc(S(=O)(=O)N4CCOCC4)cc3)nc12       nuclei count            %          104
25  Cc1ccc2c(c1)C(O)(CC(=O)c1ccc3c(c1)OCO3)C(=O)N2 (stereo not drawn)       nuclei count            %         93.3
26  Cc1ccc(S(=O)(=O)NCC(=O)N(CC(=O)NCc2ccccc2)CC2CCCO2)cc1 (stereo not drawn)       nuclei count            %          170
27  Cn1c(=O)c(=O)n(C)c2cc(S(=O)(=O)N3CCCCC3)ccc21       nuclei count            %         87.6
28  CCOc1ccccc1N(CC(=O)NC1CCCC1)C(=O)CCCC(=O)Nc1ccccn1       nuclei count            %          122
29  Cc1ccc(CCNC(=O)C2CCCN(S(=O)(=O)c3cnc[nH]3)C2)cc1 (stereo not drawn)       nuclei count            %          135
30  CCC(C)NC(=O)c1cc(CC(C)C)on1 (stereo not drawn)       nuclei count            %          127
31  CC(C)(O)C1=NOC(c2ccccc2)C1 (stereo not drawn)       nuclei count            %         99.1
32    Cc1occc1-c1nnc(SCC(=O)N2CCc3ccccc32)o1       nuclei count            %          106
33    Cc1nnc(SCC(=O)Nc2c(Cl)cccc2Cl)[nH]c1=O       nuclei count            %          103
34  CC(CCC(=O)Nc1nncs1)C(=O)O (stereo not drawn)       nuclei count            %          123
35  O=c1[nH]cnc2c1nc(SCc1ccccc1)n2C1OC(CO)C(O)C1O (stereo not drawn)       nuclei count            %          110
36  CCc1ccc(NC(=O)CSc2nnc(Cc3cccn3C)n2-c2ccc(OC)cc2)cc1       nuclei count            %          117
37  CCOC(=O)c1sc(N)c(C(=O)OCC)c1COC(=O)C1CC(=O)N(Cc2ccco2)C1 (stereo not drawn)       nuclei count            %          116
38  CCS(=O)(=O)NCCc1cc2c(OC)ccc(OC)c2[nH]c1=O       nuclei count            %         95.1
39              Cn1nc(C(=O)NC2CCCCCC2)ccc1=O       nuclei count            %          121
40  Cn1c(C(=O)OCC(=O)NCC2CCCO2)cc2sccc21 (stereo not drawn)       nuclei count            %          107
41        COc1cccc(OCC(=O)Nc2ccccc2C(N)=O)c1       nuclei count            %          110
42  CCN(Cc1cc2ccccc2[nH]c1=O)S(=O)(=O)c1ccccc1       nuclei count            %          104
43             Cn1c(-c2cc(Br)ccc2O)n[nH]c1=S       nuclei count            %          118
44           Cc1cc(Oc2ccccc2)nc(-c2ccccc2)n1       nuclei count            %         70.6
45  Cc1c(NC(=O)C2(c3ccccc3)CCOCC2)c(=O)n(-c2ccccc2)n1C       nuclei count            %          130
46          CC(C)[C@H](NC(=O)NC1CCCC1)C(=O)O       nuclei count            %         91.7
47            Cc1nnc(SCc2cn3ccsc3n2)n(N)c1=O       nuclei count            %          121
48  Cc1ccc2c(c1)N(CC(=O)N1CCCCC1c1cccnc1)C(=O)CO2 (stereo not drawn)       nuclei count            %          104

====

test.description: inhibitors of TNFa-induced NFkB p65 translocation, primary screen, imaging, HUVEC, MLSMR starter and 10KST1 sets (AID 438);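 note: compound added about 3h40 before a 20 min TNFalpha stimulation; signal is the nuclear over cytoplasmic p65 intensity ratio per well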
condition.notes: HUVEC TNFa-induced p65 nuclear translocation; at 2 µM, stronger effect = higher value, 0% TNFa-plus-vehicle, 100% no-TNFa wells
Activity calls are given as the source filed them.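 Rule for the calls: active = inhibition above 20% together with a positive visual image hit; inconclusive = visual image hit but inhibition not above 20%; inactive = no visual image hit.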
recorded.endpoint: inhibition

> print(dat)
                                    compound        measurement
 1  CC1CN(Cc2nc3c(c(=O)[nH]c(=O)n3C)n2CC(N)=O)CC(C)O1 (stereo not given)   -7.4% (inactive)
 2  COc1ccc(C(C(=O)NC2CCCCC2)N2CCC3(CC2)OCCO3)cc1 (stereo not given)    1.8% (inactive)
 3  CC(NC(=O)c1cn(C)c2ccc(S(=O)(=O)N3CCCC3)cc2c1=O)c1ccc2c(c1)OCCO2 (stereo not given)      0% (inactive)
 4  COc1ccccc1CNC(=O)C1CCCN(S(=O)(=O)c2cccc3cccnc23)C1 (stereo not given)   -5.1% (inactive)
 5    COC(=O)CNC(=O)COC(=O)c1cc(Cl)cc(Cl)c1N    4.7% (inactive)
 6   C=CCSc1nc(N)c(C(=O)Nc2ccccc2C)cc1C(N)=O    1.4% (inactive)
 7            COc1ccc(C/C(N)=N/n2cnnc2)cc1Cl   -3.8% (inactive)
 8  COc1ccc(N2CCN(C(c3ccccc3)c3sc4nc(C)nn4c3O)CC2)cc1 (stereo not given)  -12.9% (inactive)
 9  CC(OC(=O)C1CC=CCC1C(N)=O)C(Cl)=C(Cl)Cl (stereo not given)    1.3% (inactive)
10  CCN(CC)c1ccc(NC(=O)CN2C(=O)CC(C)(C)S(=O)(=O)c3ccccc32)c(C)c1    5.8% (inactive)

Recorded values, source PubChem BioAssay.
